Values were extracted from patent US8530652B2.

target: PAK4 kinase domain (PAK4 KD) (Homo sapiens (Human)); assay: PAK4 kinase domain enzymatic assay (coupled PK/LDH, NADH absorbance at 340 nm); format: biochemical
measured.metric: pKi
Convention used: pKi is expressed as -log10 of the molar concentration.

COc1nc(Nc2n[nH]c3c2CN(C(=O)NC2CC2c2ccccc2)C3(C)C)nc(N2CCC[C@H]2C#N)n1 (stereo in doubt)	7.05

Here is another molecule to look at.
Challenge: Tell me its pKi given Cc1nc(Nc2n[nH]c3c2CN(C(=O)N[C@H](CN(C)C)c2ccccc2)C3(C)C)c2ccsc2n1 as the entry.
Response given: 7.85

---

target: PAK4 kinase domain (PAK4 KD) (Homo sapiens (Human), UniProt O96013); experiment: PAK4 kinase domain enzymatic assay (coupled PK/LDH, NADH absorbance at 340 nm); type: biochemical; conditions: PAK4 kinase domain, 25 nM PAK4 KD, 0.04 mM ATP, pH 7.5
Sequence (O96013 321-572): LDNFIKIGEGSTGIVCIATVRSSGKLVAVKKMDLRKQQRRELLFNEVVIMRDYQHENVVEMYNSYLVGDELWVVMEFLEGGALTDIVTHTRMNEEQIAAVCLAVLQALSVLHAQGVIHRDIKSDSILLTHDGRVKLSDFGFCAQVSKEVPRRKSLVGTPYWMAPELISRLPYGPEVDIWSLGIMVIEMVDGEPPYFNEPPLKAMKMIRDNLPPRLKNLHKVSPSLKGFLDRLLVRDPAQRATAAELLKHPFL
# Ki values compiled below

Examples with their reported Ki follow.
Cc1nc(Nc2n[nH]c3c2CN(C(=O)O[C@H](CN(C)C)c2ccccc2)C3(C)C)c2sccc2n1 [Example 73]	1.6 nM
CN(C)C[C@@H](NC(=O)N1Cc2c(Nc3nc(Cl)nc4ccsc34)n[nH]c2C1(C)C)c1ccccc1 [Example 6]	2.8 nM
CN(C)C[C@@H](NC(=O)N1Cc2c(Nc3ncncc3F)n[nH]c2C1(C)C)c1ccccc1 [Example 67]	280 nM

Next up:
Challenge: For the compound CC1(C)c2[nH]nc(Nc3nc(Cl)nc(Cl)n3)c2CN1C(=O)N[C@@H]1C[C@H]1c1ccccc1 (relative stereo) [Example 9] , give its measured Ki value.
Response given: 270 nM
